assaySystem: 5-HT2C receptor (Homo sapiens)
Construct: host or cells: HEK293
assay: FLIPR Ca2+ flux functional assay, agonist activity at 5-HT2C
Type: cell-based
reportedConditions: stably transfected HEK293 cells
Procedure: Functional assays 5-HT2A, 5-HT2B and 5-HT2C Receptors Activity at 5-HT2A, 5-HT2B and 5-HT2C receptors was determined using a FLIPR Ca2+ flux assay at WuXi AppTec Co. Ltd. (Hong Kong) Discovery Biology Unit according to their standard protocols. […] 10 μL of references and compounds were then transferred from the compound plate into the cell plate and the fluorescent signal was read.
metric: Emax (%)
State the answer as a number, implicitly in %.

Challenge: Return reported Emax; argument: N#Cc1cnc2[nH]cc(CCN3CCCC3)c2c1 [Compound S69]
Response given: 0

Challenge: For the molecule shown here, CC(C)N(C)CCc1c[nH]c2ncc(C#N)cc12 [Compound S67] , give the reported Emax.
Response given: 2

Challenge: I'd like to know its Emax. The molecule in question is CN(CCc1c[nH]c2ncc(F)cc12)C1CC1 [Compound S1]
Response given: 77

Challenge: Endpoint output: Emax of COc1ccccc1CNCCc1c[nH]c2ncc(Br)cc12 [Compound S62] . Value?
Response given: 85

Challenge: Form field: reported Emax of Fc1cnc2[nH]cc(CCNCc3ccccc3)c2c1 [Compound S34]
Response given: 84

Challenge: I would be grateful if you could share the reported Emax for Brc1cnc2[nH]cc(CCN3CCCC3)c2c1 [Compound S57] .
Response given: 62

Challenge: Consider the molecule shown here: CC(C)N(C)CCc1c[nH]c2ncc(Cl)cc12 [Compound S53] What is its recorded Emax?
Response given: 71

Challenge: Item under review: Brc1cnc2[nH]cc(CCN3CCC3)c2c1 [Compound S58] . Reported Emax?
Response given: 67

Challenge: Could you tell me which Emax is on file for CN(CCc1c[nH]c2ncc(Br)cc12)C1CC1 [Compound S56] ?
Response given: 45

Challenge: For the molecule Fc1cnc2[nH]cc(CCN3CCCC3)c2c1 [Compound S6] , what Emax is on record?
Response given: 81

Challenge: Consider the molecule CC1CCN1CCc1c[nH]c2ncc(F)cc12 (stereo not shown) [Compound S16] and give its measured Emax.
Response given: 60

Challenge: Fill blank: measured Emax of the molecule Fc1cnc2[nH]cc(CCN(C3CC3)C3CC3)c2c1 [Compound S5] is ____.
Response given: 28

Challenge: # lookup: Emax of CN(CCc1c[nH]c2ncc(Cl)cc12)C1CC1 [Compound S42]
Response given: 75

Challenge: Which Emax is listed for Fc1cnc2[nH]cc(CCN3CCCCC3)c2c1 [Compound S7] ?
Response given: 2

Challenge: Which measured Emax value corresponds to COc1cccc(CNCCc2c[nH]c3ncc(Br)cc23)c1 [Compound S63] ?
Response given: 48

Challenge: Would you kindly share the measured Emax for COc1cnc2[nH]cc(CCN3CCC3)c2c1 [Compound S45] ?
Response given: 11

Challenge: Endpoint output: Emax of Fc1cnc2[nH]cc(CCNC3CC3)c2c1 [Compound S2] . Value?
Response given: 92

Challenge: Name the reported Emax value associated with the molecule COc1cnc2[nH]cc(CCN(C)C3CC3)c2c1 [Compound S44]
Response given: 45

Challenge: Query: Emax; subject: CC(C)N(C)CCc1c[nH]c2ncc(OC(F)(F)F)cc12 [Compound S65]
Response given: 0

Challenge: Find the recorded Emax belonging to Fc1cnc2[nH]cc(CCN3CCOCC3)c2c1 [Compound S15] and report it.
Response given: 0

Challenge: // returns reported Emax for input COc1ccccc1CNCCc1c[nH]c2ncc(C#N)cc12 [Compound S74]
Response given: 88

Challenge: Requested read-out: Emax. Entry: COc1ccccc1CNCCc1c[nH]c2ncc(F)cc12 [Compound S32]
Response given: 89

---

Please go through the items and note down their pEC50.
assaySystem: UniProt:P28335
Sequence (P28335 33-458): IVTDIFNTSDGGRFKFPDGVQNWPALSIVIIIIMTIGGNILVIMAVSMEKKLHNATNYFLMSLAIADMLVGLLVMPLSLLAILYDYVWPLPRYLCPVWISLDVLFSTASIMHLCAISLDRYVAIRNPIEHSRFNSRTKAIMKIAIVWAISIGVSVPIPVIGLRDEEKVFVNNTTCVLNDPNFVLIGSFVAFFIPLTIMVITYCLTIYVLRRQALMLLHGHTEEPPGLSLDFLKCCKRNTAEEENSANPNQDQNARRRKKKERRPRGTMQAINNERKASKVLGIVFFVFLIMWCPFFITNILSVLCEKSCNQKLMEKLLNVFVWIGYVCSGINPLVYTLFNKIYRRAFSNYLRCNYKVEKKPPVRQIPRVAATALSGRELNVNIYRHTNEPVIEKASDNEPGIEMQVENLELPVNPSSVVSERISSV
assay: FLIPR Ca2+ flux functional assay, agonist activity at 5-HT2C
reportedConditions: stably transfected HEK293 cells
Procedure: Functional assays 5-HT2A, 5-HT2B and 5-HT2C Receptors Activity at 5-HT2A, 5-HT2B and 5-HT2C receptors was determined using a FLIPR Ca2+ flux assay at WuXi AppTec Co. Ltd. (Hong Kong) Discovery Biology Unit according to their standard protocols. […] 10 μL of references and compounds were then transferred from the compound plate into the cell plate and the fluorescent signal was read.
Convention used: pEC50 is expressed as -log10 of the molar concentration.

Challenge: Field request: pEC50 | item: CC1CCN1CCc1c[nH]c2ncc(F)cc12 (centres unmarked) [Compound S16]
Response given: 5.96

Challenge: pEC50 lookup needed for COc1ccccc1CNCCc1c[nH]c2ncc(F)cc12 [Compound S32] , thanks.
Response given: 6.69

Challenge: Look up pEC50: CC(C)N(C)CCc1c[nH]c2ncc(Br)cc12 [Compound S55]
Response given: 5.44

Challenge: # input compound: Fc1cnc2[nH]cc(CCNC3CC3)c2c1 [Compound S2] ; wanted: its pEC50
Response given: 6.73

Challenge: Reported pEC50, compound COc1cnc2[nH]cc(CCN3CCCC3)c2c1 [Compound S46] : ____
Response given: 5.38

Challenge: Param item = COc1cccc(CNCCc2c[nH]c3ncc(F)cc23)c1 [Compound S33] ; retrieve measured pEC50.
Response given: 6.61

Challenge: Quick check: pEC50 of Fc1cccc(CNCCc2c[nH]c3ncc(Br)cc23)c1 [Compound S61] ?
Response given: 5.72

Challenge: What pEC50 value was documented for this compound, Brc1cnc2[nH]cc(CCN3CCC3)c2c1 [Compound S58] ?
Response given: 6.64

---

assaySystem: 5-HT2A receptor (Homo sapiens, UniProt P28223)
Sequence (P28223 whole entry): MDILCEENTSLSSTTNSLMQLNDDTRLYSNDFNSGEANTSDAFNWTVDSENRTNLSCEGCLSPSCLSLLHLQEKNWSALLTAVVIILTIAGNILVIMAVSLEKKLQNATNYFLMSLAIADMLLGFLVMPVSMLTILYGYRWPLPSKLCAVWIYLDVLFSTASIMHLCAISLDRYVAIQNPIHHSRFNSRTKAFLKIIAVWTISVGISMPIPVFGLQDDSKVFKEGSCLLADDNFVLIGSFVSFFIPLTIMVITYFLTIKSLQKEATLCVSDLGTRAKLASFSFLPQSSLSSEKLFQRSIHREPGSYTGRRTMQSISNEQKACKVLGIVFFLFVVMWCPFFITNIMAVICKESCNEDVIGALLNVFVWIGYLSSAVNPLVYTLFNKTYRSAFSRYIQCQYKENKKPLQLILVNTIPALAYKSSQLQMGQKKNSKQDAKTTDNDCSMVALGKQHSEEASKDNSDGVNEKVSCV
assay: FLIPR Ca2+ flux functional assay, agonist activity at 5-HT2A
reportedConditions: stably transfected HEK293 cells
Threshold 30 nM: EC50 strictly smaller gives satisfied, otherwise not satisfied.

Challenge: Here's an entry: CN(CCc1c[nH]c2ncc(Br)cc12)C1CC1 [Compound S56] . Is its EC50 below 30 nM?
Response given: not satisfied

Challenge: Lab note: confirm whether the reported EC50 for this compound is below 30 nM, equality not counting. compound: CC(C)N(C)CCc1c[nH]c2ncc(C#N)cc12 [Compound S67]
Response given: not satisfied

Challenge: Dear reviewer, please state whether COc1cnc2[nH]cc(CCN3CCCCC3)c2c1 [Compound S47] has EC50 strictly beneath 30 nM.
Response given: not satisfied

Challenge: Strictly below 30 nM: is that where EC50 of Fc1cnc2[nH]cc(CCNCc3ccccc3F)c2c1 [Compound S30] sits?
Response given: satisfied

Challenge: is_below(EC50, 30 nM) for CN(CCc1c[nH]c2ncc(OC(F)(F)F)cc12)C1CC1 [Compound S41] ?
Response given: not satisfied

Challenge: Please let me know if CC(C)N(C)CCc1c[nH]c2ncc(OC(F)(F)F)cc12 [Compound S65] shows EC50 below 30 nM.
Response given: not satisfied

Challenge: Is 30 nM strictly greater than the compound's reported EC50? compound: CN(CCc1c[nH]c2ncc(F)cc12)CC1CC1 [Compound S43]
Response given: not satisfied

Challenge: Problem: For the compound Fc1cnc2[nH]cc(CCN3CCC3)c2c1 [Compound S9] , is EC50 under 30 nM?
Response given: satisfied

Challenge: Just wondering, is EC50 of COc1ccccc1CNCCc1c[nH]c2ncc(F)cc12 [Compound S32] below 30 nM?
Response given: satisfied

Challenge: Problem: For the compound Fc1cnc2[nH]cc(CCN3CCC4CC43)c2c1 (stereo not shown) [Compound S25] , is EC50 under 30 nM?
Response given: satisfied

---

assaySystem: 5-HT2A receptor (Homo sapiens)
Construct: host or cells: HEK293
assay: FLIPR Ca2+ flux functional assay, agonist activity at 5-HT2A
Type: cell-based
reportedConditions: stably transfected HEK293 cells
Procedure: Functional assays 5-HT2A, 5-HT2B and 5-HT2C Receptors Activity at 5-HT2A, 5-HT2B and 5-HT2C receptors was determined using a FLIPR Ca2+ flux assay at WuXi AppTec Co. Ltd. (Hong Kong) Discovery Biology Unit according to their standard protocols. […] 10 μL of references and compounds were then transferred from the compound plate into the cell plate and the fluorescent signal was read.
Tag: 1 if measured Emax is not below 70%, 0 if it is.

Challenge: Does "CC(C)N(C)CCc1c[nH]c2ncc(OC(F)(F)F)cc12" have a reported Emax of at least 70%?
Response given: 1

Challenge: Check if Emax >= 70% (inclusive). Item: "C[C@H]1CCCN1CCc1c[nH]c2ncc(F)cc12"
Response given: 1

Challenge: Does the reported Emax for "CN(CCc1c[nH]c2ncc(Cl)cc12)C1CC1" fall at or above the 70% mark?
Response given: 0

Challenge: Has "CN(CCc1c[nH]c2ncc(F)cc12)C1CCC1" a recorded Emax greater than or equal to 70%?
Response given: 1

# credit: patent US20250361233A1
